# test: logP by HPLC on reversed-phase column (C 18), EEC Directive 79/831 Annex V.A8
# Assay type: physicochemical
# reported conditions: C 18, 40° C., 0.1% aqueous formic acid and acetonitrile
# Protocol: Temperature: 40° C.; Mobile phases: 0.1% aqueous formic acid and acetonitrile; linear gradient from 10% acetonitrile to 90% acetonitrile. Calibration was carried out using unbranched alkan-2-ones (comprising 3 to 16 carbon atoms) with known logP values (determination of the logP values by the retention times using linear interpolation between two successive alkanones).
result type: logPa

CCN(C)/C=N/c1cc(C)c(Oc2ccc(Cl)c(C[Si](C)(C)C)c2)cc1C
3.01
Cc1cc(Oc2ccc(Cl)c(C(C)C)c2)c(Cl)cc1/N=C/N(C)C1CC1
2.96
Cc1cc(Oc2ccc(Cl)c(C(C)(C)C)c2)c(C)cc1/N=C/N1CCCCC1
3.02
CCc1cc(Oc2cc(C)c(/N=C/N(C)C3CC3)cc2Cl)ccc1Cl
2.89
CCc1cc(Oc2cc(C)c(/N=C/N(C)C3CC3)cc2C)ccc1Cl
2.71
CCc1cc(Oc2cc(C)c(/N=C/N3CCCCC3)cc2Cl)ccc1Cl
2.74
Cc1cc(/N=C/N2CCCCC2C)c(Cl)cc1Oc1ccc(Cl)c(C(C)(C)C)c1 (racemic)
3.33
